target-under-test: recombinant human TFPI (tissue factor pathway inhibitor) (human, UniProt P10646 29-304)
test-name: cell-based or functional assay
observed-property: FXa assay % of FXa alone, 2.5 nM Ab, 10 nM TFPI (%)
Numeric answer only, unit % assumed.

Using the record for clone 1216 (antibody, V domains shown) VH: EVQLVESGGGLVKPGGSLRLSCAASGFTFSHYAMNWVRQAPGKGLEWVSTITTGGSYTYYADSVEGRFTISRDNAKNSLYLQMNSLRAEDTAVYYCARQDGHFLMDYWGQGTLVTVSS VL: DVVMTQTPLSLPVTLGQPASISCKSSQSLLDIDGKTYLNWLQQRPGQSPKRLIYLVSKLDSGVPDRFTGSGSGTDFTLKISRVEAEDVGVYYCWQGTHLPFTFGQGTKVEIKR , report its FXa assay % of FXa alone, 2.5 nM Ab, 10 nM TFPI.
3.6
